- Test system: Escherichia coli TOP10;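 further: peptides expressed intracellularly from a pBAD plasmid library in pooled LB shake-flask culture, induced with 0.3% L-arabinose, DNA abundance read by NGS, three biological replicates, DESeq2 with apeglm shrinkage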
- testMethodNotes: shrunken log2 fold change of peptide-encoding DNA abundance (4.5 h post-induction vs induction); higher = less antimicrobial activity (less host growth inhibition)
- experimentalConditions: time post-induction: 4.5 h; library: site-saturation at positions 5, 18, 19, 20
# shrunken log2 fold change binned as lower level (below -0.1), middle level (-0.1 to below 0.2), upper level (0.2 or more)

Before answering, review these 5 worked examples.
INSERT INTO assay_data (orderedresidues, categorylabel) VALUES
  ('RRIRSRPPRLPRPRPRPSPSPRP', 'middle level'),
  ('RRIRGRPPRLPRPRPRPKMVPRP', 'upper level'),
  ('RRIRVRPPRLPRPRPRPKEPPRP', 'middle level'),
  ('RRIRHRPPRLPRPRPRPSVMPRP', 'lower level'),
  ('RRIRYRPPRLPRPRPRPYAYPRP', 'lower level');

Exercise: Band assignment needed for "RRIRPRPPRLPRPRPRPCANPRP" please.
Solution: middle level

Exercise: Bin? "RRIRDRPPRLPRPRPRPQDGPRP"
Solution: middle level

Exercise: Which class holds "RRIRLRPPRLPRPRPRPTRSPRP" ?
Solution: upper level

Exercise: Please let me know in which category the item "RRIRQRPPRLPRPRPRPQVEPRP" belongs.
Solution: middle level

Exercise: Just checking, what class would you give "RRIRRRPPRLPRPRPRPDMRPRP" here?
Solution: upper level

Exercise: Which shrunken log2 fold change category applies to "RRIRQRPPRLPRPRPRPDEMPRP" here?
Solution: middle level

Exercise: Textbook exercise: identify the category of the sequence given here, "RRIRPRPPRLPRPRPRPKWDPRP" , according to its measured value.
Solution: upper level

Exercise: Hello team, could you let me know which band the following sequence falls into: "RRIRWRPPRLPRPRPRPVAVPRP"
Solution: upper level

Exercise: Class label required: "RRIRIRPPRLPRPRPRPKKHPRP"
Solution: lower level

Exercise: Please indicate the class for "RRIRQRPPRLPRPRPRPMRWPRP" based on its shrunken log2 fold change.
Solution: middle level

Exercise: Which class holds "RRIRARPPRLPRPRPRPVNEPRP" ?
Solution: upper level

Exercise: Which bin should I file "RRIRRRPPRLPRPRPRPLMQPRP" under?
Solution: upper level

Exercise: Bin? "RRIRMRPPRLPRPRPRPSYCPRP"
Solution: lower level

Exercise: Consider "RRIRNRPPRLPRPRPRPRATPRP" . To which shrunken log2 fold change class does it belong?
Solution: upper level

Exercise: Entry "RRIRERPPRLPRPRPRPANTPRP" belongs to which category?
Solution: upper level

Exercise: Just checking, what class would you give "RRIRSRPPRLPRPRPRPGQWPRP" here?
Solution: middle level

Exercise: Which class holds "RRIRCRPPRLPRPRPRPSSCPRP" ?
Solution: lower level

Exercise: Just checking, what class would you give "RRIRDRPPRLPRPRPRPTVQPRP" here?
Solution: middle level

Exercise: Band for the recorded shrunken log2 fold change of "RRIRYRPPRLPRPRPRPVWVPRP" ?
Solution: middle level

Exercise: Sort "RRIRWRPPRLPRPRPRPQLSPRP" into one of the categories.
Solution: lower level

Exercise: Kindly identify the class of "RRIRERPPRLPRPRPRPHKPPRP" .
Solution: lower level

Exercise: Class (by measured shrunken log2 fold change) for "RRIRCRPPRLPRPRPRPVFQPRP"
Solution: middle level

Exercise: Which category does the recorded shrunken log2 fold change put "RRIRIRPPRLPRPRPRPQERPRP" in?
Solution: lower level

Exercise: In plain terms, what class is "RRIRVRPPRLPRPRPRPKQDPRP" ?
Solution: lower level

Exercise: # bin label for "RRIRARPPRLPRPRPRPCGWPRP"
Solution: upper level
